target: ETR1 1-407; experiment: MST
measure.name: Kd

INSERT INTO assay_data (binder, result) VALUES
  ('MKPRLCFNFRRRSISPCYISISYLLVAKLFKLFKIH [synthetic full length PLS peptide PLS(FL)]', '1650 nM');
